Catalogue of molecules with associated NF-kB SEAP reporter activity
- Tested on: RAW-Dual
- experiment_notes: NF-kB SEAP reporter activity, fold change vs agonist alone; cytotoxicity flag (confluency mask): not cytotoxic; higher = enhanced NF-kB activity
- measurement_context: agonist: Pam3CSK4 (TLR2/1) 0.1 ug/mL
Whole data set: some 2,900 compounds, median “NF-kB SEAP reporter activity, fold change vs agonist alone” near 0.99, cut for the highest 2% near 2.6. What follows is part of a selection rich in the highest values, with near analogues and random picks from the rest.

>  <molecule>
O=C(/C=C/c1cccnc1)NCCCCC1CCN(C(=O)c2ccccc2)CC1 (library stock concentration (final ~1000-fold dilution): 10 mM)

>  <target_entity>
RAW-Dual

>  <NF-kB SEAP reporter activity>
0.537

$$$$
>  <molecule>
Cc1cc(N=Nc2ccc(S(=O)(=O)Nc3ccccn3)cc2)c(N)cc1O (library stock concentration (final ~1000-fold dilution): 10 mM)

>  <target_entity>
RAW-Dual

>  <NF-kB SEAP reporter activity>
2.13

$$$$
>  <molecule>
CCC(C)C(=O)OC1CC(C)C=C2C=CC(C)C(CCC3CC(O)CC(=O)O3)C21 (stereo unspecified) (library stock concentration (final ~1000-fold dilution): 10 mM)

>  <target_entity>
RAW-Dual

>  <NF-kB SEAP reporter activity>
3.02

$$$$
>  <molecule>
O=C(/C=C/c1cccnc1)c1ccncc1 (library stock concentration (final ~1000-fold dilution): 10 mM)

>  <target_entity>
RAW-Dual

>  <NF-kB SEAP reporter activity>
1.05

$$$$
>  <molecule>
O=C(Nc1cc(C(F)(F)F)ccc1N1CCCCC1)c1ccncc1 (library stock concentration (final ~1000-fold dilution): 10 mM)

>  <target_entity>
RAW-Dual

>  <NF-kB SEAP reporter activity>
0.771

$$$$
>  <molecule>
Cc1[nH]c2ccccc2c1C1=C(NCCc2ccc(F)cc2)C(=O)N(C)C1=O (library stock concentration (final ~1000-fold dilution): 10 mM)

>  <target_entity>
RAW-Dual

>  <NF-kB SEAP reporter activity>
0.337

$$$$
>  <molecule>
CC(C)n1cc(-c2ccc3c(c2)N(C)CC3)c2c(NS(=O)(=O)c3ccn(C)n3)ccnc21 (library stock concentration (final ~1000-fold dilution): 10 mM)

>  <target_entity>
RAW-Dual

>  <NF-kB SEAP reporter activity>
1.07

$$$$
>  <molecule>
CC(=O)C1CCC2C3CCC4=CC(=O)CCC4(C)C3CCC12C (stereo unspecified) (library stock concentration (final ~1000-fold dilution): 10 mM)

>  <target_entity>
RAW-Dual

>  <NF-kB SEAP reporter activity>
1.51

$$$$
>  <molecule>
CCCn1c(NC(=O)c2cccc(C(N)=O)c2)nc2ccccc21 (library stock concentration (final ~1000-fold dilution): 10 mM)

>  <target_entity>
RAW-Dual

>  <NF-kB SEAP reporter activity>
0.205

$$$$
>  <molecule>
Cc1[nH]c2ccccc2c1CCNC(=O)c1cccs1 (library stock concentration (final ~1000-fold dilution): 10 mM)

>  <target_entity>
RAW-Dual

>  <NF-kB SEAP reporter activity>
0.991

$$$$
>  <molecule>
Cc1cc(N=Nc2ccc3c(c2)CCC(=O)N3)c(N)cc1O (library stock concentration (final ~1000-fold dilution): 10 mM)

>  <target_entity>
RAW-Dual

>  <NF-kB SEAP reporter activity>
1.22

$$$$
>  <molecule>
CC(ONC(=O)c1cc(C(F)(F)F)cc(C(F)(F)F)c1)C(=O)Nc1ccc(Cl)cc1 (stereo unspecified) (library stock concentration (final ~1000-fold dilution): 10 mM)

>  <target_entity>
RAW-Dual

>  <NF-kB SEAP reporter activity>
0.6

$$$$
>  <molecule>
CN(C)c1ccc(O)c2c1CC1CC3C(N(C)C)C(=O)C(C(N)=O)=C(O)C3(O)C(=O)C1=C2O (stereo unspecified) (library stock concentration (final ~1000-fold dilution): 5 mM)

>  <target_entity>
RAW-Dual

>  <NF-kB SEAP reporter activity>
0.759

$$$$
>  <molecule>
Cc1nc(-c2cn3c(n2)-c2ccc(-c4cnn(C(C)(C)C(N)=O)c4)cc2OCC3)n(C(C)C)n1 (library stock concentration (final ~1000-fold dilution): 10 mM)

>  <target_entity>
RAW-Dual

>  <NF-kB SEAP reporter activity>
1.15

$$$$
>  <molecule>
CC(NC(=O)C(NC(=O)OCc1ccccc1)C(C)C)C(=O)NC(CC(=O)O)C(=O)CF (stereo unspecified) (library stock concentration (final ~1000-fold dilution): 10 mM)

>  <target_entity>
RAW-Dual

>  <NF-kB SEAP reporter activity>
1.03

$$$$
>  <molecule>
O=C(c1ccccc1)C(O)O (library stock concentration (final ~1000-fold dilution): 10 mM)

>  <target_entity>
RAW-Dual

>  <NF-kB SEAP reporter activity>
1.07

$$$$
>  <molecule>
CNCCCC12CCC(c3ccccc31)c1ccccc12.Cl (library stock concentration (final ~1000-fold dilution): 10 mM)

>  <target_entity>
RAW-Dual

>  <NF-kB SEAP reporter activity>
0.603

$$$$
>  <molecule>
CCc1cc2c(cc1N1CCC(N3CCOCC3)CC1)C(C)(C)c1[nH]c3cc(C#N)ccc3c1C2=O.Cl (library stock concentration (final ~1000-fold dilution): 2 mM)

>  <target_entity>
RAW-Dual

>  <NF-kB SEAP reporter activity>
1.15

$$$$
>  <molecule>
CC1OC(OC2C(CO)OC(OCC3OC(OC(=O)[C@]45CC[C@@H](C)[C@H](C)[C@H]4C4=CCC6[C@@]7(C)C[C@@H](O)[C@@H](O)[C@@](C)(CO)C7CC[C@@]6(C)[C@]4(C)CC5)C(O)C(O)C3O)C(O)C2O)C(O)C(O)C1O (stereo partly specified) (library stock concentration (final ~1000-fold dilution): 10 mM)

>  <target_entity>
RAW-Dual

>  <NF-kB SEAP reporter activity>
1.1

$$$$
>  <molecule>
CN1CCCN=C1/C=C/c1cccc(O)c1.O=C(O)c1cc2ccccc2c(Cc2c(O)c(C(=O)O)cc3ccccc23)c1O (library stock concentration (final ~1000-fold dilution): 10 mM)

>  <target_entity>
RAW-Dual

>  <NF-kB SEAP reporter activity>
0.594

$$$$
>  <molecule>
O=C(Nc1ccncc1)c1cc([N+](=O)[O-])ccc1Cl (library stock concentration (final ~1000-fold dilution): 10 mM)

>  <target_entity>
RAW-Dual

>  <NF-kB SEAP reporter activity>
0.69

$$$$
